Target: T1, human CXCL1 protein (human, UniProt P09341 35-107)
T1 construct: also called HuCXCL1
T1 sequence: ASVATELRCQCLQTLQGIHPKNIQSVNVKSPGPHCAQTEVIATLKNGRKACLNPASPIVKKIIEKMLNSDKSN
Test: antigen-immobilized ELISA, HuCXCL1 on the plate, absorbance (upper left panel)
Catalogue of binders with associated EC50 (read off the curve)

mh1A-7H10_VH1/VL (antibody, V domains shown) VH: QVQLKESGPVLVAPSQSLSITCSVSGFSSTTYGVHWVRQPPGQGLEWLGVIWAGGSTNYNAALMSRLSISKDNSKSQVFLKMNSLQTDDTAMYYCATQYHYPFAYWGQGTLVTVSA VL: NIVMTQSPKSMSMSVGERVTLSCKASENVGIYVSWYQQKPEQSPKLMIYGASNRNTGVPDRFTGSGSATDFTLTISSVQAEDLADYYCGQSYSYPLTFGAGTKLELK : ~0.02 µg/mL

[Q] Please give the measured EC50 (read off the curve) for this binder: Hu1A-7H10 VH1/VL1 (antibody, V domains shown) VH: QVTLKESGPVLVKPTETLTLTCTVSGFSSTTYGVHWVRQPPGKALEWLGVIWAGGSTNYNAALMSRLTISKDTSKSQVVLTMTNMDPVDTATYYCATQYHYPFAYWGQGTLVTVSS VL: DIQMTQSPSSLSASVGDRVTITCKASENVGIYVSWYQQKPGKAPKLMIYGASNRNTGVPSRFSGSGSGTDFTLTISSLQPEDFATYYCGQSYSYPLTFGGGTKVEIK
[A] ~0.02 µg/mL
